Assay: Aqueous solubility
Assay type: physicochemical
Details: water (aqueous); room temperature
measurement type: solubility

The value of solubility measured for the molecule C#CCOc1ccc(Nc2nc(Nc3ccc(C)c(S(N)(=O)=O)c3)ncc2F)cc1 turned out to be ~0.9 µg/mL
